Origin of the recorded values: patent US20140309265A1

- SYSTEM UNDER TEST: His-BIR2-3 (125-356, C202A/C213G, XIAP) (Homo sapiens, UniProt P98170, C202A/C213G)
- Construct: additions of His-BIR2-3 (125-356, C202A/C213G, XIAP), fluorescein labeled dimeric SMAC peptide
- Sequence (P98170 125-356 C202A/C213G): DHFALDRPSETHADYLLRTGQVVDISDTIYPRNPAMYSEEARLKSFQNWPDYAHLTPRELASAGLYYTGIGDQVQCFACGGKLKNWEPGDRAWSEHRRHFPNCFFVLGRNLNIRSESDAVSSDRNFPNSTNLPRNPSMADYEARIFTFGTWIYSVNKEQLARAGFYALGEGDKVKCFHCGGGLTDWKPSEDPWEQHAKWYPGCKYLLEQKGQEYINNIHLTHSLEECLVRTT
- PROTOCOL: XIAP-BIR2-3 Dimeric SMAC Peptide Homogeneous Time Resolved Fluorescence (HTRF) Assay
- TEST CONDITIONS: XIAP BIR2-3, HTRF, Table 4
pIC50: −log10 of the molar value.
EXPERIMENTAL ENDPOINT: pIC50

// worked examples, pIC50 included
RECORD SMILES	EXPERIMENTAL ENDPOINT	REPORTED MEASUREMENT
CN[C@@H](C)C(=O)N[C@H](C(=O)N1C[C@@H]2C[C@H]1C(=O)N[C@@H](Cc1ccc3ccccc3c1)C(=O)N[C@H](C(=O)O)Cc1ccc(cc1)OCc1cn(nn1)[C@H]1C[C@@H](C(=O)N[C@@H](Cc3ccc4ccccc4c3)C(=O)N[C@H](C(=O)N3CCC(C(=O)O)CC3)Cc3ccc(cc3)OCc3cn2nn3)N(C(=O)[C@@H](NC(=O)[C@H](C)NC)C(C)(C)C)C1)C(C)(C)C	pIC50	8.00 to 9.00
CN[C@@H](C)C(=O)N[C@H](C(=O)N1C[C@@H]2C[C@H]1C(=O)N[C@@H](Cc1ccc3ccccc3c1)C(=O)N[C@H](C(=O)O)Cc1ccc(cc1)OCc1cn(nn1)[C@H]1C[C@@H](C(=O)N[C@@H](Cc3ccc4ccccc4c3)C(=O)N[C@H](C(=O)NCCCC(=O)O)Cc3ccc(cc3)OCc3cn2nn3)N(C(=O)[C@@H](NC(=O)[C@H](C)NC)C(C)(C)C)C1)C(C)(C)C	pIC50	≥ 9.00
CN[C@@H](C)C(=O)N[C@H](C(=O)N1C[C@@H]2C[C@H]1C(=O)N[C@@H](Cc1ccc3ccccc3c1)C(=O)N[C@H](C(=O)O)Cc1ccc(cc1)NC(=O)c1cn(nn1)[C@H]1C[C@@H](C(=O)N[C@@H](Cc3ccc4ccccc4c3)C(=O)N[C@H](C(=O)O)Cc3ccc(cc3)OCc3cn2nn3)N(C(=O)[C@@H](NC(=O)[C@H](C)NC)C(C)(C)C)C1)C(C)(C)C	pIC50	≥ 9.00
CN[C@@H](C)C(=O)N[C@H](C(=O)N1C[C@@H]2C[C@H]1C(=O)N[C@@H](Cc1ccc3ccccc3c1)C(=O)N[C@H](C(=O)O)Cc1ccc(cc1)OCc1cn(nn1)[C@H]1C[C@@H](C(=O)N[C@@H](Cc3ccc4ccccc4c3)C(=O)N[C@H](C(=O)NS(=O)(=O)CCCC(=O)O)Cc3ccc(cc3)OCc3cn2nn3)N(C(=O)[C@@H](NC(=O)[C@H](C)NC)C(C)(C)C)C1)C(C)(C)C	pIC50	≥ 9.00

Okay, now this compound:
Challenge: Record `CN[C@@H](C)C(=O)N[C@H](C(=O)N1C[C@@H]2C[C@H]1C(=O)N[C@@H](Cc1ccc3ccccc3c1)C(=O)N[C@H](C(=O)O)Cc1ccc(cc1)OCc1cn(nn1)[C@H]1C[C@@H](C(=O)N[C@@H](Cc3ccc4ccccc4c3)C(=O)N[C@H](C(=O)N[C@@H](C)C(=O)O)Cc3ccc(cc3)OCc3cn2nn3)N(C(=O)[C@@H](NC(=O)[C@H](C)NC)C(C)(C)C)C1)C(C)(C)C` : what is its pIC50 with His-BIR2-3 (125-356, C202A/C213G, XIAP) (Homo sapiens, UniProt P98170, C202A/C213G)?
Response given: 8.00 to 9.00

* * *

- SYSTEM UNDER TEST: His-BIR3 (241-356, XIAP) (Homo sapiens, UniProt P98170)
- Construct: additions of His-BIR3 (241-356, XIAP), fluorescein labeled SMAC peptide
- Sequence (P98170 241-356): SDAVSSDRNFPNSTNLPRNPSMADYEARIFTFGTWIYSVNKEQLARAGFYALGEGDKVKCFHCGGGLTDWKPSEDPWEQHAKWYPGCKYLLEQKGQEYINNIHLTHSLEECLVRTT
- PROTOCOL: XIAP-BIR3/SMAC Homogeneous Time Resolved Fluorescence (HTRF) Assay
- TEST CONDITIONS: Table 4
Recorded measurements of IC50, one per entry

Use the examples below as a reference point.
MOLECULE	REPORTED MEASUREMENT
CN[C@@H](C)C(=O)N[C@H](C(=O)N1C[C@@H]2C[C@H]1C(=O)N[C@@H](Cc1ccc3ccccc3c1)C(=O)N[C@H](C(=O)O)Cc1ccc(cc1)OCc1cn(nn1)[C@H]1C[C@@H](C(=O)N[C@@H](Cc3ccc4ccccc4c3)C(=O)N[C@H](C(=O)N3CCC(C(=O)O)CC3)Cc3ccc(cc3)OCc3cn2nn3)N(C(=O)[C@@H](NC(=O)[C@H](C)NC)C(C)(C)C)C1)C(C)(C)C [Compound 1027]	10 to 100 nM
CN[C@@H](C)C(=O)N[C@H](C(=O)N1C[C@@H]2C[C@H]1C(=O)N[C@@H](Cc1ccc3ccccc3c1)C(=O)N[C@H](C(=O)O)Cc1ccc(cc1)OCc1cn(nn1)[C@H]1C[C@@H](C(=O)N[C@@H](Cc3ccc4ccccc4c3)C(=O)N[C@H](C(=O)NCc3cc(F)c(OC)c(F)c3)Cc3ccc(cc3)OCc3cn2nn3)N(C(=O)[C@@H](NC(=O)[C@H](C)NC)C(C)(C)C)C1)C(C)(C)C [Compound 1040]	> 100 nM
CN[C@@H](C)C(=O)N[C@H](C(=O)N1C[C@@H]2C[C@H]1C(=O)N[C@@H](Cc1ccc3ccccc3c1)C(=O)N[C@H](C(=O)O)Cc1ccc(cc1)OCc1cn(nn1)[C@H]1C[C@@H](C(=O)N[C@@H](Cc3ccc4ccccc4c3)C(=O)N[C@H](C(=O)NCc3ccc(-c4nnn[nH]4)cc3)Cc3ccc(cc3)OCc3cn2nn3)N(C(=O)[C@@H](NC(=O)[C@H](C)NC)C(C)(C)C)C1)C(C)(C)C [Compound 1023]	< 10 nM

Challenge: Dear colleague, I am looking for the recorded IC50 of the following molecule: CN[C@@H](C)C(=O)N[C@H](C(=O)N1C[C@@H]2C[C@H]1C(=O)N[C@@H](Cc1ccc3ccccc3c1)C(=O)N[C@H](C(=O)O)Cc1ccc(cc1)OCc1cn(nn1)[C@H]1C[C@@H](C(=O)N[C@@H](Cc3ccc4ccccc4c3)C(=O)N[C@H](c3n[nH]oc3=O)Cc3ccc(cc3)OCc3cn2nn3)N(C(=O)[C@@H](NC(=O)[C@H](C)NC)C(C)(C)C)C1)C(C)(C)C [Compound 1043]
Response given: 10 to 100 nM

Challenge: Name the recorded IC50 for CN[C@@H](C)C(=O)N[C@H](C(=O)N1C[C@@H]2C[C@H]1C(=O)N[C@@H](Cc1ccc3ccccc3c1)C(=O)N[C@H](C(=O)O)Cc1ccc(cc1)OCc1cn(nn1)[C@H]1C[C@@H](C(=O)N[C@@H](Cc3ccc4ccccc4c3)C(=O)N[C@H](C(=O)NS(=O)(=O)C3CC3)Cc3ccc(cc3)OCc3cn2nn3)N(C(=O)[C@@H](NC(=O)[C@H](C)NC)C(C)(C)C)C1)C(C)(C)C [Compound 147] .
Response given: < 10 nM

Challenge: Which IC50 value belongs to CN[C@@H](C)C(=O)N[C@H](C(=O)N1C[C@@H]2C[C@H]1C(=O)N[C@@H](Cc1ccc3ccccc3c1)C(=O)N[C@H](C(=O)O)Cc1ccc(cc1)OCc1cn(nn1)[C@H]1C[C@@H](C(=O)N[C@@H](Cc3ccc4ccccc4c3)C(=O)N[C@H](C(=O)NC(CO)CO)Cc3ccc(cc3)OCc3cn2nn3)N(C(=O)[C@@H](NC(=O)[C@H](C)NC)C(C)(C)C)C1)C(C)(C)C [Compound 1042] ?
Response given: 10 to 100 nM

Challenge: Quick check: IC50 of CN[C@@H](C)C(=O)N[C@H](C(=O)N1C[C@@H]2C[C@H]1C(=O)N[C@@H](Cc1ccc3ccccc3c1)C(=O)N[C@H](C(=O)O)Cc1ccc(cc1)OCc1cn(nn1)[C@H]1C[C@@H](C(=O)N[C@@H](Cc3ccc4ccccc4c3)C(=O)N[C@H](C(=O)OC)Cc3ccc(cc3)OCc3cn2nn3)N(C(=O)[C@@H](NC(=O)[C@H](C)NC)C(C)(C)C)C1)C(C)(C)C [Compound 1001] ?
Response given: > 100 nM

Challenge: IC50 for CN[C@@H](C)C(=O)N[C@H](C(=O)N1C[C@@H]2C[C@H]1C(=O)N[C@@H](Cc1ccc3ccccc3c1)C(=O)N[C@H](C(=O)O)Cc1ccc(cc1)OCc1cn(nn1)[C@H]1C[C@@H](C(=O)N[C@@H](Cc3ccc4ccccc4c3)C(=O)N[C@H](C(=O)O)Cc3ccc(cc3)NC(=O)CCc3cn2nn3)N(C(=O)[C@@H](NC(=O)[C@H](C)NC)C(C)(C)C)C1)C(C)(C)C [Compound 1016] ?
Response given: < 10 nM

Challenge: Item under review: CN[C@@H](C)C(=O)N[C@H](C(=O)N1C[C@@H]2C[C@H]1C(=O)N[C@@H](Cc1ccc3ccccc3c1)C(=O)N[C@H](C(=O)O)Cc1ccc(cc1)OCc1cn(nn1)[C@H]1C[C@@H](C(=O)N[C@@H](Cc3ccc4ccccc4c3)C(=O)N[C@H](C(=O)N3CCC(C(=O)O)C3)Cc3ccc(cc3)OCc3cn2nn3)N(C(=O)[C@@H](NC(=O)[C@H](C)NC)C(C)(C)C)C1)C(C)(C)C (stereo partly shown) [Compound 1021] . Reported IC50?
Response given: < 10 nM

Challenge: I am curious: what IC50 value has been reported for CN[C@@H](C)C(=O)N[C@H](C(=O)N1C[C@@H]2C[C@H]1C(=O)N[C@@H](Cc1ccc3ccccc3c1)C(=O)N[C@H](C(=O)O)Cc1ccc(cc1)OCc1cn(nn1)[C@H]1C[C@@H](C(=O)N[C@@H](Cc3ccc4ccccc4c3)C(=O)N[C@H](C(=O)N3CC(C(=O)O)C3)Cc3ccc(cc3)OCc3cn2nn3)N(C(=O)[C@@H](NC(=O)[C@H](C)NC)C(C)(C)C)C1)C(C)(C)C [Compound 1026] ?
Response given: 10 to 100 nM
